# PROTOCOL NOTES: self-splicing fitness, log relative to wild type (ln ratio); higher = more splicing; Tetrahymena group I intron in knt gene, E. coli kanamycin selection, DiMSum; sequences stand for … in CUCUCU…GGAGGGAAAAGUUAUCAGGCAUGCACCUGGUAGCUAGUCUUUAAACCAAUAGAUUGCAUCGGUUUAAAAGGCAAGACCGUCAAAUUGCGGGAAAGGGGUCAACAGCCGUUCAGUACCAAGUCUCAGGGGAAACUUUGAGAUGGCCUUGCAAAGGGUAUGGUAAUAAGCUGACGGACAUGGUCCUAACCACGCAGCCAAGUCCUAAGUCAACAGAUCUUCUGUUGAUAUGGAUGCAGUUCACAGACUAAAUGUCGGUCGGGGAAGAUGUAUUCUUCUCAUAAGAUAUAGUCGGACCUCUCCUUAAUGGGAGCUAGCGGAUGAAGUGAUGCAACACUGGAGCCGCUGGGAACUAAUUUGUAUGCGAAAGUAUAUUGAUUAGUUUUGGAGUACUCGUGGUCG;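 also: selection with 25 µg/mL kanamycin versus none on LB agar overnight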
# MEASUREMENT CONTEXT: 37 °C
MEASUREMENT TYPE: self-splicing fitness (ln)

> print(dat)
                     seq  value.observed
 1  GGCUAGCAAUAUUACGAUCA          -0.246
 2  CCAAAGCAAUAUUACGCAGC           -2.49
 3  GGGGAGCAAUAUUACGAUAC          -0.552
 4  UUCUAGCAAUAUUACGACCG           -1.07
 5  AGGGAGCAAUAUUACGAGGC           -2.59
 6  UACAAGCAAUAUUACGGAAG           -2.46
 7  CUCGAGCAAUAUUACGAUCU           -3.53
 8  CCACAGCAAUAUUACGCGUU           -2.91
 9  CGGCAGCAAUAUUACGGCGU          -0.949
10  GCGUAGCAAUAUUACGUUUC           -1.83
11  GAAAAGCAAUAUUACGCUUU           -2.39
12  UAGCAGCAAUAUUACGACGA           0.256
13  CAUGAGCAAUAUUACGCUAA           -2.94
14  CUAGAGCAAUAUUACGGCAA           -2.96
15  ACCCAGCAAUAUUACGAUAG           -1.78
16  ACGCAGCAAUAUUACGUCAA           -2.57

Cited source for all entries: the supplement of paper PMC7877785
